target: Nonstructural protein 3 (Zika virus, UniProt A0A024AXB9); test: Functional biochemical assay to identify treatments for viral infectious disease that targets Zika NS2B-NS3 protease. Utilizing a direct enzyme activity measurement method, reading the fluorescence intensity is used to characterize the relative potency of inhibitors as IC50. Synthetic construct has been made based on Zika virus (strain PRVABC59) by Centre for Medicines Discovery, University of Oxford, and the assay has been performed by Enamine biological services, Bienta Ltd.The protocol is publicly available: dx.doi.org/10.17504/protocols.io.36wgqn273gk5/v1
Sequence (A0A024AXB9 whole entry): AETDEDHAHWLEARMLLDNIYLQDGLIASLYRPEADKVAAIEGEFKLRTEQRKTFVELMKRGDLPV
Measured IC50, listed per entry for reference.

Query: Name the recorded IC50 for Cc1c(C(=O)Nc2cccc(Cn3cccn3)c2)cc(C2CC2)n1C .
Response: > 25 µM

Query: Name the recorded IC50 for Cc1c(C(=O)Nc2cccc(CS(C)(=O)=O)c2)cc(C2CC2)n1C .
Response: > 25 µM

Query: Name the recorded IC50 for O=C(Nc1ccc2c(c1)CNC2)c1cccc2c(C3CNC3)n[nH]c12 .
Response: 0.089 µM

Query: Name the recorded IC50 for Cn1nc(CNc2cc(-c3cccnc3)ccn2)cc1C1CC1 .
Response: > 25 µM
